- Tested on: T-47D breast
- experiment_notes: NCI tumour cell line growth inhibition, 48 h
Recorded TGI, one value per entry.

CCc1ccc(-c2ccc(=O)n(-c3ccc(S(N)(=O)=O)cc3)n2)cc1 | > 100 µM
COc1ccc(C(O)c2cc3c(N)c(C(=O)Nc4cccc(Cl)c4C)sc3nc2C)cc1 (stereo unspecified) | 2.2 µM
CN(C)CCOC(=O)c1ccc(N)cc1 | > 100 µM
Cn1c(=O)c(Oc2cccc(F)c2)cc2cnc(NC3CCOCC3)nc21 | > 25 µM
COC(=O)c1ccc(CCc2cc(O)ccc2O)cc1 | 7.91 µM

Read the next record carefully.
For reference, reported TGI for O=C1OC2(C(F)(F)F)Oc3ccccc3CN2C12CCCCC2 (stereo unspecified) stands at > 100 µM

====

- Test system: RXF 393 renal
- experiment_notes: NCI tumour cell line growth inhibition, 48 h; in the data active means GI50 below about 0.43 µM; inactive means the rest
The reply should name one outcome from active, inactive

O=C(Nc1ccc(Cl)cc1)c1cc2c(cc1O)[nH]c1ccccc12 | inactive
CN(C)c1ccc(C(=O)c2ccc(N(C)C)c(N)c2)cc1N | inactive
COc1ccc(C(O)c2cc3c(N)c(C(=O)Nc4cccc(Cl)c4C)sc3nc2C)cc1 (stereo not given) | inactive
Fc1ccc(C2CC(c3cccc(Nc4ccncc4)c3)=NN2c2cc(Cl)cc(Cl)c2)cc1 (stereo not given) | inactive

Turning now to a further compound:
For CCN(CC)CCOc1ccc(Nc2ncc3cc(-c4c(Cl)cccc4Cl)c(=O)n(CCOC)c3n2)cc1 , what call appears in the results of this test?
active

====

Entries and their measured TGI follow.
- Tested on: SK-OV-3 ovarian
- experiment_notes: NCI tumour cell line growth inhibition, 48 h

O=C(Cn1c(=O)c(-c2ccccc2)nc2ccccc21)c1cccnc1 | > 100 µM
O=[N+]([O-])c1cc(O)c(O)cc1-c1cn2ccsc2n1 | > 100 µM
COc1cc(/C=C2\N=C(c3ccccc3)N(/N=C3\C(=O)Nc4ccccc43)C2=O)cc(OC)c1OC | > 100 µM
CCNC(=O)/C=C/CCC#Cc1ccc(-c2ccc(-c3cccs3)s2)s1 | > 100 µM
COc1cccc2c1C1(O)C2CCCC12OCCCO2 (stereo unspecified) | > 100 µM

Reported TGI ( O=C(CC1(O)C(=O)Nc2ccc(Br)cc21)c1ccc(Cl)cc1 (stereo unspecified) ) = > 100 µM

The reported value for COc1ccc(C2=CC(c3cc(OC)c(OC)c(OC)c3)NC(=O)N2)cc1OC (stereo unspecified) in terms of TGI is > 100 µM

Lab note: N#CC(C#N)=Cc1c(O)ccc2ccccc12 gave TGI of 34.7 µM

The recorded TGI for c1cc(C[S+]2CCCC2)ccc1C[S+]1CCCC1 is > 100 µM

Notebook: O=C1CSC2=NCC3(NN12)c1ccccc1-c1ccccc13 , TGI read as > 10 µM

Kindly note the recorded TGI for CCCCCCCCCCCCCCCC(=O)OCC1OC(n2cnc3c(=S)nc(N)[nH]c32)C(OC(=O)CCCCCCCCCCCCCCC)C1OC(=O)CCCCCCCCCCCCCCC (stereo unspecified) , which is > 27.8 µM

====

- Tested on: UACC-62 melanoma
- experiment_notes: NCI tumour cell line growth inhibition, 48 h
As shown below, each of these compounds has a reported TGI value.

N#CC(C#N)=Cc1c(O)ccc2ccccc12 | 31.1 µM

The reported value for CCc1nn(S(=O)(=O)c2ccc(C)cc2)c2c1CS(=O)(=O)CC2 in terms of TGI is > 100 µM

The recorded TGI for entry O=c1[nH]c2ccccc2nc1/C=C(\O)C(F)F equals > 100 µM

compound N#Cc1cccc(C(=O)c2cnn(-c3ccc(F)cc3)c2N)c1 , TGI observed: > 25 µM

Per the records, this compound ( CC(C)COC(=O)N1N=NC2C3OC(CC3=O)C21 (stereo not given) ) has TGI equal to > 100 µM

Reported TGI of Cc1cccc2nc3cccc(C(=O)NCCC[N+](C)(CCCNC(=O)c4cccc5nc6cccc(C)c6nc45)Cc4c([N+](=O)[O-])ncn4C)c3nc12 : > 1100 µM

====

- System: A549 NSCLC
- experiment_notes: NCI tumour cell line growth inhibition, 48 h; in the data active = GI50 below about 0.43 µM; inactive = the rest
Outcome (select one): active, inactive

COc1cc(N=Nc2ccccc2)cc(/C=N\[N-]C(N)=S)c1[O-].COc1cc(N=Nc2ccccc2)cc(/C=N\[N-]C(N)=S)c1[O-].[Fe+4] | inactive

Identify the outcome logged in this assay for the compound shown: CNc1nc(C)c(-c2nc(Nc3cccc(S(N)(=O)=O)c3)ncc2F)s1
active

Given CCCCCCOc1ccc(/C=N/NC(N)=S)cc1 , state the outcome it received in this test.
inactive

====

This listing pairs molecules with measured TGI.
- Test system: SR leukemia
- experiment_notes: NCI tumour cell line growth inhibition, 48 h

NC1C2C(CC(=O)O)OCC=C3CN4CCC1(C(=O)C(=O)O)C4CC32 (configuration not stated) | > 100 µM
O=C1c2ccccc2-c2c1c1ccc([N+](=O)[O-])cc1c(=O)n2CCNCCCNCCn1c2c(c3ccc([N+](=O)[O-])cc3c1=O)C(=O)c1ccccc1-2 | 18.8 µM
Nc1c(C(=O)c2cccc(-c3ccc[n+]([O-])c3)c2)cnn1-c1ccc(F)cc1F | > 25 µM
OCCN(CCO)c1cccc(N(CCO)CCO)c1 | > 100 µM
CC/C=C\C/C=C\C[C@H](O)C/C=C1/C(=O)C=C[C@H]1C/C=C\CCC(=O)OC | > 8.25 µM

Short answer for O=C1OC2(C(F)(F)F)Oc3ccccc3CN2C12CCCCC2 (configuration not stated) : TGI was 74.8 µM

====

- Test system: M14 melanoma
- experiment_notes: NCI tumour cell line growth inhibition, 48 h
quantity_name: TGI (µM)
Please reply with the bare figure in µM and do not write the unit itself.

// known answers, use as guide
COc1ccccc1/C=C1\CCC(CNc2ccc(Cl)cc2)C1=O (stereo unspecified) | 9.72
CCOC(=O)c1c2c(n(-c3ccc(OC)cc3)c1C)C(=O)C(=O)c1ccccc1-2 | 3.17
CN(C)C(=S)NN=C(c1ccccn1)c1ccccn1 | 0.349
NC(=O)C(Br)CBr (stereo unspecified) | 3.02
O=C1c2ccccc2C(=O)c2c1ccc1c2N=C(c2ccc(F)cc2)CC(c2ccc(Cl)c(Cl)c2)N1 (stereo unspecified) | 37.7

Entry CN(C)CCOC(=O)c1ccc(N)cc1 , M14 melanoma data, TGI value: 34.8

Summary: COc1ccc(/C=C(\C(=C/c2ccc(OC)cc2)[N+](=O)[O-])[N+](=O)[O-])cc1 , M14 melanoma, TGI = 18.2

====

Catalogue of compounds with associated GI50
- Tested on: 786-0 renal
- experiment_notes: NCI tumour cell line growth inhibition, 48 h

Some compounds with known GI50 results, for comparison:
NS(=O)(=O)c1ccc(C2C3=C(CCCC3=O)OC3=C2C(=O)c2ccccc2C3=O)cc1 (centres undefined) | 1.64 µM
CSc1ccc(-c2cc(-c3ccc(NC(=O)CCCN4CCCC4)cc3)nc(-c3ccc(NC(=O)CCCN4CCCC4)cc3)c2)cc1 | 6.88 µM
C=C1C(=O)O[C@H]2[C@H]1CC/C(CNS(=O)(=O)c1ccc3ccccc3c1)=C\CC[C@@]1(C)O[C@@H]21 | 1.62 µM

Measured on 786-0 renal, CN(C)c1ccc(C(=O)c2ccc(N(C)C)c(N)c2)cc1N has a documented GI50 of 9.74 µM

====

- Tested on: OVCAR-8 ovarian
- experiment_notes: NCI tumour cell line growth inhibition, 48 h; in the data active means GI50 below about 0.43 µM; inactive means the rest
Write down one outcome, taken from T for active, F for inactive

GET /call?item= COc1cc2c(cc1OCCCOC1=C=C=C(c3ccc4c(c3)c3cc(-c5ccc(OCCCOc6cc7c(cc6OC)C(=O)N6CCC[C@H]6C=N7)cc5)ccc3n4S(=O)(=O)c3ccc(C)cc3)C=C1)N=C[C@@H]1CCCN1C2=O returns the recorded outcome of this test.
F

====

- Tested on: HL-60(TB) leukemia
- experiment_notes: NCI tumour cell line growth inhibition, 48 h; in the data active = GI50 below about 0.43 µM; inactive = the rest
Returns: one label drawn from True = active, False = inactive

Below are worked cases with known answers.
Fc1ccc(C2CC(c3cccc(Nc4ccncc4)c3)=NN2c2cc(Cl)cc(Cl)c2)cc1 (centres undefined) | False
N#Cc1cccc(C(=O)c2cnn(-c3ccc(F)cc3)c2N)c1 | False
NS(=O)(=O)c1ccc(C2C3=C(CCCC3=O)OC3=C2C(=O)c2ccccc2C3=O)cc1 (centres undefined) | True

# next compound below
Lab log entry: O=C1c2ccccc2-c2c1c1ccc([N+](=O)[O-])cc1c(=O)n2CCNCCCNCCn1c2c(c3ccc([N+](=O)[O-])cc3c1=O)C(=O)c1ccccc1-2 — outcome as called in the assay?
False

====

- Test system: M14 melanoma
- experiment_notes: NCI tumour cell line growth inhibition, 48 h; in the data active = GI50 below about 0.43 µM; inactive = the rest
One label from this list, please: Y (active), N (inactive)

Previously resolved entries follow.
NC(N)=N/N=C/c1c(-c2cccs2)nc2sccn12 | N
COC(=O)Nc1nc2ccc(Oc3ccc(NC(=O)Nc4cccc(Br)c4)cc3)cc2[nH]1 | N
Nc1ccc(N=Nc2ccccc2)c(N)n1 | N
COc1ccc(-c2nsc3c2NC(=O)CC3c2ccc3c(c2)OCO3)cc1 (centres undefined) | N
O=C(Nc1ncc(Cc2ccccc2)s1)c1ccc2c(c1)OCCCO2 | Y
N#Cc1cccc(C(=O)c2cnn(-c3ccc(F)cc3)c2N)c1 | N

Give the logged outcome of this assay for the following molecule: C=C1C(=O)O[C@H]2[C@H]1CC/C(CNC(=O)/C=C/c1cccc(OC)c1)=C\CC[C@@]1(C)O[C@@H]21
N

Would you mind telling me which call this test gave O=C1c2ccccc2-c2c1c1ccc([N+](=O)[O-])cc1c(=O)n2CCNCCCNCCn1c2c(c3ccc([N+](=O)[O-])cc3c1=O)C(=O)c1ccccc1-2 ?
N

Which outcome was entered for the molecule CSc1ccc(-c2cc(-c3ccc(NC(=O)CCCN4CCCC4)cc3)nc(-c3ccc(NC(=O)CCCN4CCCC4)cc3)c2)cc1 in this test?
N
